B1: CPEB3 Ribozyme (parent)
chain: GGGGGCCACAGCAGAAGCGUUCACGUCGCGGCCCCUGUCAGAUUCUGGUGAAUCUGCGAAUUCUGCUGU

Variants of: B1
procedureText: self-cleavage, relative activity (ratio to wild type); higher = more cleavage; co-transcriptional
Answer 0 (no) if self-cleavage is under 0.3, and 1 (yes) if it is 0.3 or more.

Illustrative cases are given below, each with its answer.
C24G U38G	0 (no)
C45U A59U	1 (yes)
G1A A51U	0 (no)
A40C U69A	1 (yes)
G19A C66U	0 (no)
G17A C32U	1 (yes)

# input Reported self-cleavage at or above 0.3? C6U G30U
# output 0 (no)

# input Now the variant A8G C45A
# output 1 (yes)
